- Test protocol: Highest frequency of acute liver toxicity observed during clinical trials, expressed as a percentage. [column '% AIGUE' in source]
- Measurement parameters: human
Kindly state Hepatotoxicity (acute) for each of the entries shown.
Answers are plain numbers, in %.

Respectfully, I request Hepatotoxicity (acute) for each entry included below.
1. CC(C)=CCC/C(C)=C/CC/C(C)=C/CCC(=O)OC/C=C(\C)CCC=C(C)C [GEFARNATE]
2. O=C(CCNNC(=O)c1ccncc1)NCc1ccccc1 [NIALAMIDE]
3. CCC(=O)NS(=O)(=O)c1ccc(-c2c(-c3ccccc3)noc2C)cc1
4. CN(Cc1cc(Br)cc(Br)c1N)C1CCCCC1
5. Cc1nccn1CC1CCc2c(c3ccccc3n2C)C1=O (stereo not drawn)

[0, 0, 0, 0, 0]

For each of the compounds below, state Hepatotoxicity (acute).
1. CC(=O)Nc1ccc(OC(=O)c2ccccc2OC(C)=O)cc1 [BENORILATE]
2. CCn1cc(C(=O)O)c(=O)c2ccc(C)nc21

1: 0; 2: 0

----------
- Test protocol: Highest frequency of moderate liver toxicity observed during clinical trials, expressed as a percentage. [column '% BIOL' in source]
- Measurement parameters: human
Structures can show the parent of a compound that is named as a salt.
Measure: Hepatotoxicity (moderate) (%)
Numbers only, in %.

Could you report Hepatotoxicity (moderate) for every entry in the following list?
1. CN(C)[C@@H]1C(O)=C(C(N)=O)C(=O)[C@@]2(O)C(O)=C3C(=O)c4c(O)ccc(Cl)c4[C@@H](O)[C@H]3C[C@@H]12 [DEMECLOCYCLINE]
2. CCOC(N)=O
3. CCN(CCO)CCCC(C)Nc1ccnc2cc(Cl)ccc12 (stereo not given) [HYDROXYCHLOROQUINE]
4. CCCC(C)C1(CC)C(=O)NC(=S)NC1=O (stereo not given) [THIOPENTAL]
5. CCC1=C(C[C@H]2NCCc3cc(OC)c(OC)cc32)C[C@H]2c3cc(OC)c(OC)cc3CCN2C1 [DEHYDROEMETINE]
6. CCOC(=O)C1=C(C)NC(C)=C(C(=O)OC)C1c1cccc([N+](=O)[O-])c1 (stereo not given) [NITRENDIPINE]

1. 0
2. 0
3. 11.1
4. 87
5. 0
6. 18.2

Need Hepatotoxicity (moderate) for each of these compounds.
1. CCNc1cccnc1N1CCN(C(=O)c2cc3cc(OC)ccc3[nH]2)CC1 [ATEVIRDINE MESYLATE]
2. O=C(CCCN1CCC(O)(c2ccc(Cl)cc2)CC1)c1ccc(F)cc1 [HALOPERIDOL]
3. C[C@](N)(Cc1ccc(O)c(O)c1)C(=O)O [METHYLDOPA]
4. CO/N=C(\C(=O)N[C@@H]1C(=O)N2C(C(=O)OCOC(=O)C(C)(C)C)=C(Cn3nnc(C)n3)CS[C@H]12)c1csc(N)n1

1. 0
2. 35.1
3. 35
4. 3.3

Kindly give each listed record's Hepatotoxicity (moderate).
1. CN1CCN(C2=Nc3cc(Cl)ccc3Nc3ccccc32)CC1 [CLOZAPINE]
2. CC(C)(Oc1ccc(C2CC2(Cl)Cl)cc1)C(=O)O (stereo not given) [CIPROFIBRATE]
3. COc1ccc(C(CN(C)C)C2(O)CCCCC2)cc1 (stereo not given) [VENLAFAXINE]
4. CC(C)CN(C[C@@H](O)[C@H](Cc1ccccc1)NC(=O)O[C@H]1CCOC1)S(=O)(=O)c1ccc(N)cc1
5. COc1cc2c(cc1OC)C(=O)C(CC1CCN(Cc3ccccc3)CC1)C2 (stereo not given) [DONEPEZIL]

1. 60
2. 7.7
3. 2.8
4. 0
5. 0

----------
- Test protocol: Highest frequency of moderate liver toxicity observed during clinical trials, expressed as a percentage. [column '% BIOL' in source]
- Measurement parameters: human
Hi there, I'd appreciate the recorded Hepatotoxicity (moderate) for every entry that follows.
Numbers only, in %.

// known answers, use as guide
| Compound | Reported measurement |
| --- | --- |
| CNC1CCCN(c2c(F)cc3c(=O)c(C(=O)O)cn(C4CC4)c3c2OC)C1 (centres undefined) [BALOFLOXACIN] | 28.6 |
| CC(C(=O)O)c1cccc(Oc2ccccc2)c1 (centres undefined) [FENOPROFEN] | 7 |
| CN1Cc2c(N)cccc2C(c2ccccc2)C1 (centres undefined) [NOMIFENSINE] | 0 |
| CC(C)(Oc1ccc(Cl)cc1)C(=O)OCCOC(=O)c1cccnc1 [ETOFIBRATE] | 0 |
| NCC1(CC(=O)O)CCCCC1 [GABAPENTIN] | 2.4 |
| CCC(=O)O[C@](Cc1ccccc1)(c1ccccc1)[C@H](C)CN(C)C [PROPOXYPHENE] | 14.3 |
| Cc1cnc(NCCCN(C)C)c2c1[nH]c1ccc3cc(O)ccc3c12 [INTOPLICINE] | 0 |
| Cc1oc(=O)oc1CN1CCN(c2cc3c(cc2F)c(=O)c(C(=O)O)c2n3C(C)S2)CC1 (centres undefined) [PRULIFLOXACIN] | 33.3 |

Each of the following entries comes with a recorded value; kindly state Hepatotoxicity (moderate) for each.
1. COc1cc(/C=C/C(=O)O)ccc1O [FERULATE]
2. CN1CCN(C(c2ccccc2)c2ccccc2)CC1 [CYCLIZINE]
3. C[C@]12C=CC(=O)C=C1CC[C@@H]1[C@@H]2C(=O)C[C@@]2(C)[C@H]1CC[C@]2(O)C(=O)CO [PREDNISONE]
4. N[C@@H](Cc1ccc(O)c(O)c1)C(=O)O [LEVODOPA]
5. CCN1CCN(C(=O)N[C@@H](C(=O)N[C@@H]2C(=O)N3[C@@H]2SC(C)(C)[C@@H]3C(=O)O)c2ccccc2)C(=O)C1=O.C[C@]1(Cn2ccnn2)[C@H](C(=O)O)N2C(=O)C[C@H]2S1(=O)=O
6. COCCCC/C(=N\OCCN)c1ccc(C(F)(F)F)cc1 [FLUVOXAMINE]
7. Cc1c(C)c2c(c(C)c1O)CCC(C)(COc1ccc(CC3SC(=O)NC3=O)cc1)O2 (centres undefined) [TROGLITAZONE]
8. CC(C)/N=c1\cc2n(-c3ccc(Cl)cc3)c3ccccc3nc-2cc1Nc1ccc(Cl)cc1 [CLOFAZIMINE]

1: 0; 2: 0; 3: 80; 4: 9; 5: 33.3; 6: 0; 7: 5.8; 8: 16

----------
- Test protocol: Highest frequency of acute liver toxicity observed during clinical trials, expressed as a percentage. [column '% AIGUE' in source]
- Measurement parameters: human
Where a SMILES comes first, the peptide text is derived from it. Bridges are numbered along the chain shown (N, C = ends). [ ]: non-standard residue; d: D form. The star is where a group is joined. NMePhe(4-NMe2) = CN[C@@H](Cc1ccc(N(C)C)cc1)C(=O)O; Pip(4-oxo) = O=C1CCN[C@H](C(=O)O)C1; Picolinoyl(3-OH) = O=C(c1ncccc1O)*; Phg = N[C@H](C(=O)O)c1ccccc1; dAbu = CC[C@@H](N)C(=O)O
Measure: Hepatotoxicity (acute)
Write down the value, and be sure its unit follows.

Please review the entries below; each comes with its answer.
| Compound | Hepatotoxicity (acute) |
| --- | --- |
| O=C(O)Cn1c(=O)n(Cc2ccc(Br)cc2F)c(=O)c2ccc(Cl)cc21 [ZENARESTAT] | 0% |
| Cc1onc(-c2c(Cl)cccc2Cl)c1C(=O)N[C@@H]1C(=O)N2[C@@H]1SC(C)(C)[C@@H]2C(=O)O [DICLOXACILLIN] | 0% |

Respectfully, I request Hepatotoxicity (acute) for each entry included below.
1. COC(=O)C1=C(C)NC(C)=C(C(=O)OCCN(C)Cc2ccccc2)C1c1cccc([N+](=O)[O-])c1 (centres undefined) [NICARDIPINE]
2. NCc1ccccc1CC(=O)N[C@@H]1C(=O)N2C(C(=O)O)=C(CSc3nnnn3CC(=O)O)CS[C@H]12 [CEFORANIDE]
3. CCN(CC)CCNC(=O)c1cc(Cl)c(N)cc1OC [METOCLOPRAMIDE]
4. CN1CCCN(C(c2ccccc2)c2ccc(Cl)cc2)CC1 (centres undefined) [HOMOCHLORCYCLIZINE]
5. C[C@@H](c1ncncc1F)[C@](O)(Cn1cncn1)c1ccc(F)cc1F [VORICONAZOLE]

1: 0%; 2: 3.4%; 3: 0%; 4: 0%; 5: 0%

List Hepatotoxicity (acute) for every entry below, keeping the order given.
1. CC(O)CCC(=O)c1ccoc1 (centres undefined)
2. CC[C@H]1NC(=O)[C@@H](NC(=O)c2ncccc2O)[C@@H](C)OC(=O)[C@H](c2ccccc2)NC(=O)[C@@H]2CC(=O)CCN2C(=O)[C@H](Cc2ccc(N(C)C)cc2)N(C)C(=O)[C@@H]2CCCN2C1=O [PRISTINAMYCIN 1A] ({Picolinoyl(3-OH)}-T[dAbu]P[NMePhe(4-NMe2)][Pip(4-oxo)][Phg]; ester 1-C)

1. 11.3%
2. 0%
